Cited source for all entries: ChEMBL document CHEMBL1201862

Tested on: SW-620
method.notes: NCI tumour cell line growth inhibition, 48 h
The source made the active and inactive calls. Rule as the data show it: active = GI50 up to about 1.1 µM and inactive = higher.
Pick one: active, inactive

Query block: Answer briefly: the call reported for O=C(/C=C/c1cccs1)c1ccc(Cl)cc1 in this assay.
Result block: inactive

Query block: Hello, I am checking results. What call was entered for COc1ccc(C(NS(=O)(=O)c2ccc(C)cc2)c2c(C(CBr)OC)c3ccccc3n2S(=O)(=O)c2ccccc2)cc1OC (configuration not stated) ?
Result block: inactive

Query block: Could you check what this test reported for Cc1ccc(O)c(-c2cc(-c3cccc(Br)c3)c(C#N)c(N)n2)c1 ?
Result block: inactive

Query block: Tell me the recorded outcome of this test for CC1=NN(C(=O)c2ccncc2)C(=O)C1/N=N/c1ccc(F)cc1 (configuration not stated) .
Result block: inactive

Query block: Test call, this molecule: O=C1C=C(C2OC(CO)C(O)C2O)C(=O)N1 (configuration not stated)
Result block: inactive

Query block: Outcome? O=C(N/C(=C\c1ccc(/C=C(\NC(=O)c2ccccc2)c2nc3cc([N+](=O)[O-])ccc3[nH]2)cc1)c1nc2cc([N+](=O)[O-])ccc2[nH]1)c1ccccc1
Result block: inactive

Query block: # outcome recorded in this test, key = CNS(=O)(=O)NNS(=O)(=O)c1cccc([N+](=O)[O-])c1
Result block: inactive

Query block: Short answer needed: outcome of this test for Cc1nc(Nc2ccccc2)sc1C(=O)CC(=O)C(=O)NC12CC3CC(CC(C3)C1)C2 ?
Result block: inactive

Query block: Name the outcome recorded for CCOC(=O)C(Cc1ccc(OC(=O)c2ccc(OC)cc2OC)cc1)NC(=O)C(F)(F)F (configuration not stated) in the assay.
Result block: inactive

Query block: Status in this test for C1CSC(Sc2nc(SC3=NCCS3)nc(SC3=NCCS3)n2)=N1 ?
Result block: inactive

Query block: In this assay, the call recorded for COC1C(O)CC(OC2CC(OC3CC(O[C@@H]4C(=O)c5c(cc6cc(OC7CC(OC8CC(O)C(O)C(C)O8)C(O)C(C)O7)c(C)c(O)c6c5O)C[C@H]4[C@H](OC)C(=O)[C@@H](O)[C@@H](C)O)OC(C)C3O)OC(C)C2O)OC1C (some centres not stated) was what?
Result block: active

Query block: Hi, do you know how O=C1NC(c2ccccc2)N=C2Oc3ccccc3C=C12 (configuration not stated) came out in this test?
Result block: active

* * *

System: DMS-273
method.notes: NCI tumour cell line growth inhibition, 48 h
The source made the active and inactive calls. Rule as the data show it: active = GI50 up to about 1.1 µM and inactive = higher.
Outcomes you can answer with include only these: true (active), false (inactive)

Query block: Per the assay record, what outcome was assigned to O=S1(=O)OCCOS(=O)(=O)C1(I)I ?
Result block: false

Query block: Record lookup: outcome of this test for CCc1cccc(C(C)C)c1N1C(=O)C(=O)C(c2nc3ccccc3s2)C(=O)C1=O ?
Result block: false

Query block: Which outcome was entered for the molecule O=C(CCc1nnc2s/c(=C\c3ccc4c(c3)OCO4)c(=O)n12)Nc1cc(Cl)ccc1Cl in this test?
Result block: false

Query block: Dear all, I need the recorded test outcome for O=C1c2cc(CCl)sc2C(=O)c2ccsc21 , thank you.
Result block: true

Query block: What call does the record list for Cc1ccc(NC(=O)CSc2nnc(Cc3ccccc3)o2)c(C)c1 ?
Result block: false

Query block: Outcome logged for CCC1(N=[N+]=[N-])C(=O)Nc2cc(C)ccc2C1=O (stereo unspecified) in this assay:
Result block: false
